Listed here are compounds together with their documented growth inhibition.
- EXPERIMENT: NCI Yeast Anticancer Drug Screen. Data for the bub3 strain (AID 167)
- SETUP_CONDITIONS: S. cerevisiae bub3 mutant strain, at 50.0 µM, hits give high values
About 79,000 compounds went through this panel and 15% of them were active in at least one assay; those are over-represented in the sample as a whole.
// units = %; emit number, no label

Use these answered entries as a reference point.
- COMPOUND: "COc1ccc(Sc2cccc(Cl)c2)c(C(=O)O)c1"
  growth inhibition, %: -0.55
- COMPOUND: "CC1(C)C([N+](C)(C)C)CS1(=O)=O (centres undefined)"
  growth inhibition, %: 9.65
- COMPOUND: "CC1(C)C(=NNC(=S)NN)C(C)(C)C1=NNC(=S)NN"
  growth inhibition, %: 46.5

Sample CCN1C(=NCCO)NS(=O)(=O)c2ccccc21 — what was its growth inhibition? -24.6

And then Cc1cccc(NC(=S)NCCc2ccccn2)c1 , what is it? 12.7

And then COc1ccc(C(=O)c2ccccc2)c(OC(=O)Nc2ccc(Cl)cc2)c1 , what is it? 12.6

And then CN1C(=O)C2C(C1=O)[C@H]1c3ccccc3C=CN1[C@@H]2C(=O)c1ccccc1 (some centres undefined) , what is it? -3.8

And then C=C1CCC2(C)CCC3(C)C(CCC4C5(C)CCC(OC(C)=O)C(C)(C)C5CCC43C)C2C1C (centres undefined) , what is it? -5.15

And then Cc1cc(Cl)ccc1OCC(=O)OCCBr , what is it? -22.9

And then Fc1nc(F)nc(-c2c3ccccc3c3n2CCS3)n1 , what is it? 4.7

And then CCOC(=O)CCCNc1cc(OC)cc2cccnc12 , what is it? 19.8

And then COc1cc(OC)c(NC(=O)NC(C)(C)C)cc1Cl , what is it? 18.6

And then O=C(N/C(=C/c1ccc(Cl)cc1)c1nc2ccccc2c(=O)n1Nc1ccc([N+](=O)[O-])cc1[N+](=O)[O-])c1ccccc1 , what is it? -21.6

And then NC(=O)N/N=C1\CC2CC1C1CCCC21 (centres undefined) , what is it? -8.9

And then Cc1ccc(S/C=C/Sc2ccc(C)cc2)cc1 , what is it? 22.9

And then N#Cc1c(-c2ccccc2)cc(-c2ccc(Cl)cc2)[nH]c1=S , what is it? 42.2

And then COCn1c(C(=O)c2ccc(OC)cc2)cc2ccccc21 , what is it? 16.1

And then NC(=O)C[n+]1cccc(C(=O)Nc2ccccc2)c1 , what is it? 23.2

And then c1ccc2c(c1)CCOC2 , what is it? 8.55

And then O=C(/C=C/c1c(-c2ccccc2)[nH]c2ccccc12)c1cccc([N+](=O)[O-])c1 , what is it? 19.9

And then NC(=O)N/N=C(/c1nc2ccc([N+](=O)[O-])cc2[nH]c1=O)C(O)c1ccco1 (centres undefined) , what is it? -19

Measured values drawn from PubChem BioAssay (NCI) for this set.
